- assay-explanation: Ketorolac concentration in cerebrospinal fluid (HPLC)
- Format: in vivo, humans
- test-parameters: human, other: intrathecal (lumbar puncture); 1.0 mg i.t.; lumbar CSF 60 min after injection
quantity: concentration at 60 min

Request: Consider the molecule O=C(c1ccccc1)c1ccc2n1CCC2C(=O)O (stereo not shown) and give its recorded concentration at 60 min.
Response: 30700 ng/mL

====

- assay-explanation: Ketorolac concentration in cerebrospinal fluid (HPLC)
- Type: in vivo, humans
- test-parameters: human, other: intrathecal (lumbar puncture); 2.0 mg i.t.; lumbar CSF 60 min after injection
quantity: concentration at 60 min (ng/mL)
Please respond with the number in ng/mL and leave the unit unwritten.

Request: Give concentration at 60 min for the following compound: O=C(c1ccccc1)c1ccc2n1CCC2C(=O)O (stereo not shown)
Response: 33500
